Protocol: In vivo pharmacokinetic study of DCCTX and Gom A in rats
Measurement setup: Sprague-Dawley, rat, plasma, iv, 300 mg/kg, Group 1: CTX 300 mg/kg i.v. alone (saline 0.5 h before)
Property label: half-life

INSERT INTO measurements (compound, property_label, obs_value) VALUES
  ('O=P1(NCCCl)NCCCO1 (stereo not shown) [DCCTX, 2-dechloroethylcyclophosphamide]', 'half-life', '132 min');

---

Protocol: In vivo pharmacokinetic study of DCCTX and Gom A in rats
Measurement setup: Sprague-Dawley, rat, plasma, iv, 300 mg/kg, Group 5: CTX 300 mg/kg i.v. 72 h after Gom A 20.8 mg/kg i.g., read-out: AUC0–8h
Property label: AUC(0-t) (ng·h/mL)

INSERT INTO assay_data (compound, property_label, obs_value) VALUES
  ('O=P1(NCCCl)NCCCO1 (stereo not shown) [DCCTX, 2-dechloroethylcyclophosphamide]', 'AUC(0-t)', 79200);
